# Target or test system: T1, human SLC34A2 (human, UniProt O95436 1-690)
# T1 construct: whole, on cells; also called human solute carrier 34 A2; NaPi2b
# T1 sequence (looked up): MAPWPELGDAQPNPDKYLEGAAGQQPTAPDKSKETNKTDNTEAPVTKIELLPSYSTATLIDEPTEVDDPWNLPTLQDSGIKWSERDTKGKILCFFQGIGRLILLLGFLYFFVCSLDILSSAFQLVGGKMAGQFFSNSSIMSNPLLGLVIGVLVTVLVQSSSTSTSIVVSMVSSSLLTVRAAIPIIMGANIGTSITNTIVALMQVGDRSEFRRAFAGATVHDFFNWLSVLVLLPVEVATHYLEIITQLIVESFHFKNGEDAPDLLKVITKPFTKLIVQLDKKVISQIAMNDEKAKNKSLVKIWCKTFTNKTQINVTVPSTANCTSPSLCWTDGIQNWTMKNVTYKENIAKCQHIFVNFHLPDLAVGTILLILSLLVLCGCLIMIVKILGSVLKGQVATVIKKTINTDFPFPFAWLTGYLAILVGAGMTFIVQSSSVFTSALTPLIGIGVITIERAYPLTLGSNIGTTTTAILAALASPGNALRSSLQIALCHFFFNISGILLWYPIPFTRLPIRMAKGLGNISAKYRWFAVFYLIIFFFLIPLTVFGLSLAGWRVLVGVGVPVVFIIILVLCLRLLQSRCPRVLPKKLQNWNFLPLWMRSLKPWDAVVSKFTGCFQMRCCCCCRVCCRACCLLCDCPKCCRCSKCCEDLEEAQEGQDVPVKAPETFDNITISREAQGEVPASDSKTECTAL
# Assay overview: FACS, HEK293/human SLC34A2 cells
Threshold-based label: Top (MFI) under 100000 MFI gives True, Top (MFI) not under 100000 MFI gives False.

- xi30H9B8F9 hIgG1 (antibody, V domains shown, chimeric, hIgG1) VH: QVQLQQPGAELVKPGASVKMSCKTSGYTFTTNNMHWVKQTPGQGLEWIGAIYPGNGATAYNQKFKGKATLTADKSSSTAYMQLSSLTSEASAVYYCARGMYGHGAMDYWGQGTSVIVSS VL: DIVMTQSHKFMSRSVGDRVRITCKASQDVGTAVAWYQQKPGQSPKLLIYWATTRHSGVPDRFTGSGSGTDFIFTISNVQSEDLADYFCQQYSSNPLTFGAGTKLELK: False
- xi87H12B7 hIgG1 (antibody, V domains shown, chimeric, hIgG1) VH: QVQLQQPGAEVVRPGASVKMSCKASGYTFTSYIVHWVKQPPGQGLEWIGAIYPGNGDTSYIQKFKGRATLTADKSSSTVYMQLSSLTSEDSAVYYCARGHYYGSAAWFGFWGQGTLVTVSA VL: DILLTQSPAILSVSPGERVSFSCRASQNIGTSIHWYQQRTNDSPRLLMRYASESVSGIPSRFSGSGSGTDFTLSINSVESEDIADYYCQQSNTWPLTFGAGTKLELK: True
- xi84F2D10 hIgG1 (antibody, V domains shown, chimeric, hIgG1) VH: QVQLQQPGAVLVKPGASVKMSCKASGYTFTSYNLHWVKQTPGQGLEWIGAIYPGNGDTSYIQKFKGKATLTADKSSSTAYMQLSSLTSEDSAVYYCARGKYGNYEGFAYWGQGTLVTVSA VL: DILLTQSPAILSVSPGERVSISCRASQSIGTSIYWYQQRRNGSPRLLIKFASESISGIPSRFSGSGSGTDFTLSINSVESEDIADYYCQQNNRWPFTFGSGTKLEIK: False
- xi11F6H8 hIgG1 (antibody, V domains shown, chimeric, hIgG1) VH: EVQLQQSGPELVKPGASVKISCKTSGFTFTEYTMHWVKQSHGKSLEWIGGINPNNGISSYNQNFKGKATLTVDKSSSTAYMELRSLTSEDSTVYYCARCRYYDTSYYDMDYWGQGTSVTVSS VL: DIQMTQTTSSLSASLGDRVTISCRASQDIRNFLNWYQQKPDGTVKLLIYYTSRLHSGVPSRFSGSGSGTDYSLTISNLEEEDIATYFCQQSNTLPWTFGGGTKLEIK: False
- xi94B10A8 hIgG1 (antibody, V domains shown, chimeric, hIgG1) VH: QVQLQQTGAELVKPGASVKMSCKASGYTFTGYIIHWIKQRPGQGLEWIGAIYPGNGDTSYNQKIKGRATLTADKSSTTAYMQLSSLTSEDSAVYYCARGDYGNPAWFAYWGQGTLVTVSA VL: DVVLTQSPATLSVTPGDRVSLSCRASQSISNYLYWYQQKAHESPRLLIKFASQSISGIPSRFRGSGSGTDFTLSINSVETEDFGMYFCQQSNKWPLTFGAGTKLELK: True
- xi69B11D8 hIgG1 (antibody, V domains shown, chimeric, hIgG1) VH: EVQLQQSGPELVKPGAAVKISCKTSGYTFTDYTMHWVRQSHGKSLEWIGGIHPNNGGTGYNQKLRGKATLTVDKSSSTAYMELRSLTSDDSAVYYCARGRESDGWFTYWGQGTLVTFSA VL: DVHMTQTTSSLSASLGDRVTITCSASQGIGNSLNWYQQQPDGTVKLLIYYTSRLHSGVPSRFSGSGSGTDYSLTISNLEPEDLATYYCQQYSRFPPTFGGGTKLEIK: True
- xi7G10E11 hIgG1 (antibody, V domains shown, chimeric, hIgG1) VH: DVKLVESGGGLIKLGGSLKLSCAASGFTFSGYYMSWFRQTPEKRLELVAVINSNGGSTYYAVTVKGRFTISRDNAKNTLYLQMSSLKSEDTALYYCARHEGSQAWFAHWGQGTLVTVSA VL: DIVMTQSHKFMSTSVGDRVSITCKASQDVTTAVAWYQQKPGQSPKLLIYWASTRHTGVPDRFTGSGSGTDYTLTISSVQAEDLALYYCQQHHSTPLTFGAGTKLELK: False
- xi94E9B12 hIgG1 (antibody, V domains shown, chimeric, hIgG1) VH: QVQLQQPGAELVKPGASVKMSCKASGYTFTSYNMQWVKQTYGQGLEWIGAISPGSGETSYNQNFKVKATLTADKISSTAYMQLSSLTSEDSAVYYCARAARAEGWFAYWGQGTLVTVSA VL: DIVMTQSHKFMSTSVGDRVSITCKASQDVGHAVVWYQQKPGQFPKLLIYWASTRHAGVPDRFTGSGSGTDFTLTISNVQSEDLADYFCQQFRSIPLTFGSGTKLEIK: False
- xi20H2F1 hIgG1 (antibody, V domains shown, chimeric, hIgG1) VH: EVKLVESGGNLVKPGGSLKLSCAASGFTFSSYAMSWVRQTPEKRLEWVASISNGGTTYYPDSVKGRFTISRDVARNILYLQMTSLRSEDTAMYYCARTHYRDFVYWGQGTLVTVSA VL: EIVLTQAAFSNPVTLGTSASISCRSSKSLLHSNGITYLYWYLQKPGQSPQLLIYQMSNLASGVPDRFSCSGSGTDFTLRISRVEAEDVGVYYCAQNLEFPWTFGGGTKLEIK: True
